# Ki per record follows
# targetOfAssay: human progesterone receptor-A [PRA] isoform (Homo sapiens, UniProt P06401)
# Construct: host or cells: insect SF21 cells (baculovirus)
# Sequence (P06401 165-933): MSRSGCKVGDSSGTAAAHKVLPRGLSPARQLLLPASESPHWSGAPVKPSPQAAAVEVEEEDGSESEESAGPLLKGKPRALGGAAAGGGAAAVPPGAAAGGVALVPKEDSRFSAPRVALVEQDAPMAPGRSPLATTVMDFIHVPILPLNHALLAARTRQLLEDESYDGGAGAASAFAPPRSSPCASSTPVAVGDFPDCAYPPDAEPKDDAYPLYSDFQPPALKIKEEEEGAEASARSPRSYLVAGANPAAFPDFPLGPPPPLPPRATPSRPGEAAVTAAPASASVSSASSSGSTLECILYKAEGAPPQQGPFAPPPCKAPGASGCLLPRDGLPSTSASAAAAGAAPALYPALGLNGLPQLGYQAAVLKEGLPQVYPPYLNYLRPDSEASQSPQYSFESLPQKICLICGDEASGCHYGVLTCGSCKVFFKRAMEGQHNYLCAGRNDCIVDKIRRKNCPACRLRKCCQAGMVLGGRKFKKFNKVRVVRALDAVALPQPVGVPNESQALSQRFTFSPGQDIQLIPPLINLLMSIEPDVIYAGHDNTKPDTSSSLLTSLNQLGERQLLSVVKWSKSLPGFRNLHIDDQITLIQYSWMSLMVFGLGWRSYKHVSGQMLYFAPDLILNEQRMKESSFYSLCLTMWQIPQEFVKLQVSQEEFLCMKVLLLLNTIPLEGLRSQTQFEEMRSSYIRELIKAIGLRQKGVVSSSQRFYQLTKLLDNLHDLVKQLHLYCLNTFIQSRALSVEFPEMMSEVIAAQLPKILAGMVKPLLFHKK
# protocolSummary: Radioligand binding with human progesterone receptor cytosol ([3H]-progesterone competition)
# conditionInfo: PRA cytosol expressed in insect SF21 cells, [3H]Prog ~0.8 nM, 4° C. overnight; Ki by Cheng-Prusoff, KL ~4.5 nM; read-out: Ki (nM) PR
I only need the number, in nM, no unit after it.

Input: What reported Ki corresponds to COc1cccc2c1-c1ccc3c(c1[C@@H]([C@@H]1C=C(CO)CCC1)O2)C(C)=CC(C)(C)N3 on human progesterone receptor-A [PRA] isoform (Homo sapiens, UniProt P06401)?
Output: 4100

###

# Ki per record follows
# targetOfAssay: human glucocorticoid receptor-α [GRX] isoform (Homo sapiens)
# Construct: host or cells: insect SF21 cells (baculovirus)
# protocolSummary: Radioligand binding with human glucocorticoid receptor cytosol ([3H]-dexamethasone competition)
# conditionInfo: GRX cytosol expressed in insect SF21 cells, [3H]-Dex ~0.9 nM, 4° C. overnight; Ki by Cheng-Prusoff, KL ~[…]; read-out: Ki (nM) GR
I only need the number, in nM, no unit after it.

Input: Fill blank: measured Ki of the molecule COc1c(C)ccc2c1-c1ccc3c(c1C(C1C=C(C)CCC1)O2)C(C)=CC(C)(C)N3 (racemic) is ____.
Output: 4.6

###

# targetOfAssay: human glucocorticoid receptor-α [GRX] isoform (Homo sapiens)
# Construct: host or cells: insect SF21 cells (baculovirus)
# protocolSummary: Radioligand binding with human glucocorticoid receptor cytosol ([3H]-dexamethasone competition)
# conditionInfo: GRX cytosol expressed in insect SF21 cells, [3H]-Dex ~0.9 nM, 4° C. overnight; Ki by Cheng-Prusoff, KL ~[…]; read-out: Ki (nM) GR
experimentalEndpoint: Ki (nM)
I only need the number, in nM, no unit after it.

Illustrative cases are given below, each with its answer.
compound | Ki [nM]
CCc1cccc2c1-c1ccc3c(c1C(c1ccccc1)O2)C(C)=CC(C)(C)N3 (stereo not shown) [Example 70] | 25.5
C=Cc1cccc2c1-c1ccc3c(c1C(C1C=C(C)CCC1)O2)C(C)=CC(C)(C)N3 (stereo not shown) [Example 341] | 2.5
C=C(COC(C)=O)CC1Oc2cccc(OC)c2-c2ccc3c(c21)C(C)=CC(C)(C)N3 (stereo not shown) [Example 49] | 13

Query compound follows.
Input: Fill blank: measured Ki of the compound C=CCC1Oc2cccc(OCc3ccccc3)c2-c2ccc3c(c21)C(C)=CC(C)(C)N3 (stereo not shown) [Example 447] is ____.
Output: 7100

###

# targetOfAssay: human glucocorticoid receptor-α [GRX] isoform (Homo sapiens)
# Construct: host or cells: insect SF21 cells (baculovirus)
# Sequence (P04150 1-777): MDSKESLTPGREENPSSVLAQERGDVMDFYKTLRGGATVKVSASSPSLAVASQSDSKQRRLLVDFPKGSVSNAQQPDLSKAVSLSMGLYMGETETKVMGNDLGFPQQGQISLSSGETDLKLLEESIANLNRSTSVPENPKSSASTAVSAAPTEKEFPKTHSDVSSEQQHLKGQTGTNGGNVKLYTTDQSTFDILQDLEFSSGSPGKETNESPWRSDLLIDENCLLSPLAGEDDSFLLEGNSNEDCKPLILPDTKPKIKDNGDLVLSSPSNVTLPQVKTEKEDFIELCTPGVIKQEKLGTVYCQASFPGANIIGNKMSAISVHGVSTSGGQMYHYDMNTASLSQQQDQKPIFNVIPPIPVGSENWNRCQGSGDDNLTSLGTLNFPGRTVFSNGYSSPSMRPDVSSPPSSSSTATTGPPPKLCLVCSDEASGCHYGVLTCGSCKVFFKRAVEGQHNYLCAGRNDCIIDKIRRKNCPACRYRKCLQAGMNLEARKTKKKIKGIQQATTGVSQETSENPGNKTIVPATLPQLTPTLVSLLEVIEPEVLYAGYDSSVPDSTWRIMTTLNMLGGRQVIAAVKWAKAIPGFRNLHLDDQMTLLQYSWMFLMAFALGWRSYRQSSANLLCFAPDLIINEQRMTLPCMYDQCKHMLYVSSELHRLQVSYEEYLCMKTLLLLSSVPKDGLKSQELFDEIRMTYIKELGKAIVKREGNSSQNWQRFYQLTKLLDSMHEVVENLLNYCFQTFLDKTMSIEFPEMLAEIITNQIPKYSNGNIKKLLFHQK
# protocolSummary: Radioligand binding with human glucocorticoid receptor cytosol ([3H]-dexamethasone competition)
# conditionInfo: GRX cytosol expressed in insect SF21 cells, [3H]-Dex ~0.9 nM, 4° C. overnight; Ki by Cheng-Prusoff, KL ~[…]; read-out: Ki (nM) GR
experimentalEndpoint: log10(Ki) (log10 of the value in nM)
Heads up: the numbers are on a log10 scale; they represent Ki in nM.

Illustrative cases are given below, each with its answer.
compound | valueObserved
COc1cccc2c1-c1ccc3c(c1C(c1cc(C)cc(N4CCCC4)c1)O2)C(C)=CC(C)(C)N3 (stereo not shown) | 0.99
CC1=CC(C)(C)Nc2ccc3c(c21)C(Cc1ccccc1)Oc1ccc(O)c(Cl)c1-3 (racemic) | 0.61
COc1cccc2c1-c1ccc3c(c1C(CCOC(=O)N1CCOCC1)O2)C(C)=CC(C)(C)N3 (stereo not shown) | 2.06

Input: Fill blank: measured log10(Ki) of the compound COc1c(Br)cc(Br)c2c1-c1ccc3c(c1C(C1C=CCCC1)O2)C(C)=CC(C)(C)N3 (stereo not shown) is ____.
Output: 0.77

Input: Cool, now CC1=CC(C)(C)Nc2ccc3c(c21)C(c1ccccc1)Oc1cccc(C)c1-3 (stereo not shown)
Output: 0.89

Input: Cool, now C=CCC1Oc2ccc(OC(=O)CCC(=O)N3CCCCC3)c(OC)c2-c2ccc3c(c21)C(C)=CC(C)(C)N3 (stereo not shown)
Output: 0.15

Input: Cool, now CCOc1cccc2c1-c1ccc3c(c1C(c1cc(Cl)cc(Cl)c1)O2)C(C)=CC(C)(C)N3 (stereo not shown)
Output: 1.28

Input: Cool, now C=CCC1Oc2ccc(OC(=O)CCCNC(C)=O)c(OC)c2-c2ccc3c(c21)C(C)=CC(C)(C)N3 (racemic)
Output: -0.34

Input: Cool, now COc1cccc2c1-c1ccc3c(c1C(CCCN1C(=O)c4ccccc4C1=O)O2)C(C)=CC(C)(C)N3 (stereo not shown)
Output: 1.94

Input: Cool, now COc1c(O)ccc2c1-c1ccc3c(c1/C(=C/c1ccc(F)cc1)O2)C(C)=CC(C)(C)N3
Output: 0.26

Input: Cool, now COc1cccc2c1-c1ccc3c(c1C(c1ccccc1)O2)C(C)=CC(C)(C)N3 (stereo not shown) [Example 1]
Output: 0.93

Input: Cool, now COc1c(O)ccc2c1-c1ccc3c(c1C(c1cc(Cl)cc(Cl)c1)O2)C(C)=CC(C)(C)N3 (stereo not shown)
Output: 0.49

Input: Cool, now COc1cccc2c1-c1ccc3c(c1C(C1CCC=C(CO)C1)O2)C(C)=CC(C)(C)N3 (stereo not shown)
Output: 2.03

Input: Cool, now C=CCC1Oc2ccc(OC(C)=O)c(OC)c2-c2ccc3c(c21)C(C)=CC(C)(C)N3 (stereo not shown)
Output: -0.17

Input: Cool, now C=CCC1Oc2ccc(OC(=O)CCCC(=O)N(C)C)c(OC)c2-c2ccc3c(c21)C(C)=CC(C)(C)N3 (stereo not shown)
Output: -0.05

Input: Cool, now COc1cccc2c1-c1ccc3c(c1C(CC(=O)C(C)(C)C)O2)C(C)=CC(C)(C)N3 (stereo not shown)
Output: 1.86
